Let's look at some sequences and their measured PBM E-score.
Target: Vhr1 (UniProt P40522)
Sequence: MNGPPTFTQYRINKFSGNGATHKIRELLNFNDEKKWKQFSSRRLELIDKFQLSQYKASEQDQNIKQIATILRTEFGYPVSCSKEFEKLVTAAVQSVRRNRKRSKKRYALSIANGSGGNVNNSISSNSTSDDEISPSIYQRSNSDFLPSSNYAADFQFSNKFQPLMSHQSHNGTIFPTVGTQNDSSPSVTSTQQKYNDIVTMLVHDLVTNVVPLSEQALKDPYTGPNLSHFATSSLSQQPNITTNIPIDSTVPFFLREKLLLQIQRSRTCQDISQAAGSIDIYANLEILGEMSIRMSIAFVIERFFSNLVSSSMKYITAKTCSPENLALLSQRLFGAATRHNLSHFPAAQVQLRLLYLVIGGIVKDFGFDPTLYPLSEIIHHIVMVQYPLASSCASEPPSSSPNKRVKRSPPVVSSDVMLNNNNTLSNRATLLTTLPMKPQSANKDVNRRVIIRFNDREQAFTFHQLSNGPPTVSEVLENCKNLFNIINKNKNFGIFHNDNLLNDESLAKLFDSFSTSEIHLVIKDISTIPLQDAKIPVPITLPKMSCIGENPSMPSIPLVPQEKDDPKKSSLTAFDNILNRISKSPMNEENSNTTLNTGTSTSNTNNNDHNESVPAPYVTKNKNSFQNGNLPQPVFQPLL
Test: PBM E-score (8-mer binding enrichment) (E-score (-0.5 to 0.5)); higher = stronger / more preferred TF binding
Conditions: protein concentration: 200 nM; construct: GST-full length
The full ranking holds about 33,000 sequences; the median of “E-score (-0.5 to 0.5)” is about -0.012, and the highest 2% start at about 0.27. This is one part of a sample in which the highest values are shown more often than they occur.

Some sequences with known PBM E-score results, for comparison:
ACATCATC : 0.166
GAATCATC : 0.437

Query: PBM E-score; subject: AGACTCGC
0.136

Query: PBM E-score; subject: AGACTCAG
0.242

Query: PBM E-score; subject: TAATCAAA
0.101

Query: PBM E-score; subject: CCATCATA
0.0955

Query: PBM E-score; subject: GTATCATA
0.288

Query: PBM E-score; subject: AGACTCAC
0.399

Query: PBM E-score; subject: ACTCTCAT
0.027

Query: PBM E-score; subject: TAATCATA
0.314

Query: PBM E-score; subject: ATATCATA
0.216

====

Target: Vhr1 (UniProt P40522)
Sequence: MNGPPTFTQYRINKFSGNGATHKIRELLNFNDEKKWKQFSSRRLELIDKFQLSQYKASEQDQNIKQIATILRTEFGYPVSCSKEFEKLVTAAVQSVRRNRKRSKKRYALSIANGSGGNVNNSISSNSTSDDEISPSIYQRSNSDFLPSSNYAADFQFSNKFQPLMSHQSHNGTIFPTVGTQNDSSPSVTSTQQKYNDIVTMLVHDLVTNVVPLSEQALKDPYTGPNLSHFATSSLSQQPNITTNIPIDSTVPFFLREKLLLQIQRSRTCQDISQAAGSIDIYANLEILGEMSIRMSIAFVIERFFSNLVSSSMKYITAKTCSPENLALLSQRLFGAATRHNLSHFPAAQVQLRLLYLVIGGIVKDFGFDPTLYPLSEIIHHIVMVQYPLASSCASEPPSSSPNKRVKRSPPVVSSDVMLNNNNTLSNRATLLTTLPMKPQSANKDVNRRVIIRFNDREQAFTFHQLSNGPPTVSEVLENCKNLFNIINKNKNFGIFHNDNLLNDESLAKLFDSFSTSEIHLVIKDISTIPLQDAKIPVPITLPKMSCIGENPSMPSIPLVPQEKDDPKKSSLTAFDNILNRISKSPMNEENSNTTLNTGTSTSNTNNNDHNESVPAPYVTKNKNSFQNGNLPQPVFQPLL
Test: PBM E-score (8-mer binding enrichment) (E-score (-0.5 to 0.5)); higher = stronger / more preferred TF binding
Details: protein concentration: 200 nM; construct: GST-full length
Whole data set: some 33,000 sequences, median “E-score (-0.5 to 0.5)” near -0.012, cut for the highest 2% near 0.27. The entries come from a sample that favours the highest values as a whole.
Classes (PBM E-score): bin A: < 0.05; bin B: ≥ 0.05 and < 0.2; bin C: ≥ 0.2

Known results for sequences:
CCATAGTC : bin C
ATGTAGTC : bin C
AAATAGTG : bin A
ACATAGTC : bin C
CCATCGAG : bin B

Category lookup for the sequence ACATAGTA
bin B

Category lookup for the sequence CTATAGGC
bin A

Category lookup for the sequence ATGTAGTA
bin A

Category lookup for the sequence ACATAGTG
bin C

Category lookup for the sequence GGTCTGAC
bin C

Category lookup for the sequence CTACCTGC
bin A
